Overview of recorded viability at 28.5 h, 10 µM for various molecules
test-description: in vitro
measurement-setup: human, hela cells, % viability
observation-type: viability at 28.5 h, 10 µM (%)

molecule	observation-type	reported-value
COCCc1noc(CC2CCN(c3ncc(Cl)cn3)CC2)n1	viability at 28.5 h, 10 µM	88.7
O=S(=O)(N1CCNCC1)N1CCOCC1	viability at 28.5 h, 10 µM	88.5
CN(C)S(=O)(=O)c1ccc(-c2nn(-c3ccccc3)cc2/C=C(\C#N)c2nc3ccccc3c(=O)[nH]2)cc1	viability at 28.5 h, 10 µM	101
CC(C)N(C)C(=O)Cc1csc(N)n1	viability at 28.5 h, 10 µM	100
Cc1occc1-c1nnc(SC2CCCCN(C(=O)c3ccc(Cl)cc3)C2=O)n1C (centres unmarked)	viability at 28.5 h, 10 µM	97.9
CN(C)S(=O)(=O)c1ccc(Cl)c(C(=O)Nc2cccc(O)c2)c1	viability at 28.5 h, 10 µM	113
CC(NC(=O)c1ccccc1)c1nnc(SCC(=O)c2ccccc2)n1C (centres unmarked)	viability at 28.5 h, 10 µM	82.3
CC1CCCN(C(=O)CCc2nc3sc4c(c3c(=O)[nH]2)CCCC4)C1 (centres unmarked)	viability at 28.5 h, 10 µM	87.5
O=C(O)C1CCCN1S(=O)(=O)c1ccc([N+](=O)[O-])cc1 (centres unmarked)	viability at 28.5 h, 10 µM	89.7
CCCCC(=O)N(C)c1c(CC)nc2c(OCc3ccc(C#N)cc3)cccn12	viability at 28.5 h, 10 µM	94.6
CC(C)N(C)CCOc1ncccc1OCCO	viability at 28.5 h, 10 µM	104
CCn1cc(-c2nc3cc(S(=O)(=O)NC(C)C)ccc3n2C(C)C)cn1	viability at 28.5 h, 10 µM	98.7
CN(C)c1nc(Cl)nc(N(C)C#N)n1	viability at 28.5 h, 10 µM	87.7
O=C(O)c1ccc(N2CC(C(=O)Nc3ccc(F)cc3)CC2=O)cc1 (centres unmarked)	viability at 28.5 h, 10 µM	85.3
CN(C)/C=N/c1ncnc2c1nc(Br)n2C1CC(O)C(CO)O1 (centres unmarked)	viability at 28.5 h, 10 µM	93.6
Cc1cc(C)c2[nH]c(C(=O)NCc3c(C)n[nH]c3C)c(C)c2c1	viability at 28.5 h, 10 µM	87.4
Cc1cc(C)n(CCNCc2cc(-c3ccccc3)c[nH]c2=O)n1	viability at 28.5 h, 10 µM	101
CCCC(=O)N1CCC(c2cc3n(n2)[C@@H](C(F)(F)F)C[C@@H](C)N3)C1 (some centres unmarked)	viability at 28.5 h, 10 µM	99.2
O=C(c1ccc2c(c1)N(Cc1ccccc1Cl)C(=O)CO2)c1cccs1	viability at 28.5 h, 10 µM	94.2
CN1CCN(C(=O)CNS(=O)(=O)c2ccc3ccccc3c2)CC1	viability at 28.5 h, 10 µM	99.3
COc1ccc([C@@]23CC[C@@H](NC(=O)Nc4cc(F)c(F)c(F)c4)C[C@@H]2N(C)CC3)c(F)c1OC [CBK073909T]	viability at 28.5 h, 10 µM	90.6
O=C(O)C(Cc1ccccc1)N1C(=O)c2ccccc2C1=O (centres unmarked)	viability at 28.5 h, 10 µM	97.6
C=CCNC(=O)[C@@H]1C=CCN1S(=O)(=O)c1ccc(Cl)cc1	viability at 28.5 h, 10 µM	90.4
CCOC(=O)Cn1nc(CC)n2c(cc3ccsc32)c1=O	viability at 28.5 h, 10 µM	83.9
CCOC(=O)c1ccc(-n2c(CCC(=O)O)ccc2-c2ccc(F)cc2)cc1O	viability at 28.5 h, 10 µM	94.1
Cn1ccnc1C1(O)CC2CCC(C1)N2C(=O)c1ccccc1F (centres unmarked)	viability at 28.5 h, 10 µM	87.4
c1ccc(Cn2c(CN3CCCC3)nc3ccccc32)cc1	viability at 28.5 h, 10 µM	87.7
Cc1cccc(OCC2CCCN(C(=O)C3(Cn4cccn4)CC3)C2)c1 (centres unmarked)	viability at 28.5 h, 10 µM	102
Cn1cc(C(=O)NC(Cc2cccs2)c2ccccn2)ccc1=O (centres unmarked)	viability at 28.5 h, 10 µM	112
Cc1ccc(N2CCN(C3=NC(=O)/C(=C\c4ccc(O)c([N+](=O)[O-])c4)S3)CC2)cc1	viability at 28.5 h, 10 µM	92.9
COc1ccc(C=CC(=O)N(C)c2ccccc2C(=O)O)cc1	viability at 28.5 h, 10 µM	106
CC(=O)Nc1cccc(CN(CCCO)c2ccccc2)c1	viability at 28.5 h, 10 µM	97.1
O=C(Nc1ccno1)Nc1ccc(Cl)cc1Cl	viability at 28.5 h, 10 µM	94.6
C=CCN1C(=O)CC2(C1=O)C(=O)N(CC)c1ccc(F)cc12 (centres unmarked)	viability at 28.5 h, 10 µM	115
COC(=O)CCc1ccc(S(=O)(=O)N2CCN(Cc3cc(C)c(O)c(C)c3)CC2)cc1	viability at 28.5 h, 10 µM	113
COc1ccccc1Cc1cccc(C2CCCN2C(=O)CCc2ccc(F)cc2)n1 (centres unmarked)	viability at 28.5 h, 10 µM	101
CCCCC(c1cccnc1)N(C)C(=O)c1cccn(C)c1=O (centres unmarked)	viability at 28.5 h, 10 µM	114
O=C(O)Cn1c(=O)n(CC(=O)O)c2ccccc21	viability at 28.5 h, 10 µM	83
